Collected Total Cell Count values appear next to each entry.
- Test system: HEK-293T
- Method Description: Multiplex assay against HEK293T
- Type: toxicity, cell-based
- Measurement Context: human, 24 h, 10 µM, compound concentration 10 uM, replicate 2
Keep it simple and answer with nothing but the number.

> print(dat)
                                   compound  measured.target   outcome.measure  experimental.result
1  C[C@H](N)COC(=O)[C@@H](CCCCN)NC(=O)Cc1c(-c2ccc3ccccc3c2)[nH]c2c1ccc1ccccc12         HEK-293T  Total Cell Count                  439

Prompt: What value of Total Cell Count has been recorded for this entry: CCCOc1ccc2[nH]cc(C3=CCNCC3)c2n1.Cl
Response: 502

Prompt: Total Cell Count for COC[C@@H](c1ccc(C(F)(F)F)cc1)N1CCN(C2(C)CCN(C(=O)c3c(C)ncnc3C)CC2)C[C@@H]1C.O=C(O)/C=C\C(=O)O [VICRIVIROC MALEATE] ?
Response: 310

Prompt: Can you share its Total Cell Count? I mean this compound: CN1CCN(c2cc(-c3ccccc3)nc(N)n2)CC1
Response: 378

Prompt: Can you look up the measured Total Cell Count of CCc1cc2cc(NS(=O)(=O)c3ccc(C#N)cc3)ccc2n(CC)c1=O for me?
Response: 332

Prompt: Which value of Total Cell Count has been reported for CCCCC(=O)N(Cc1ccc(-c2ccccc2-c2nnn[nH]2)cc1)[C@H](C(=O)O)C(C)C in the records?
Response: 420
